// provenance: patent US10800791B2

test system: Septoria tritici (St); assay: Growth inhibition assay of fungal pathogens, St; assay type: cell-based; details: Zymoseptoria tritici, 48 h, Septoria tritici; growth inhibition at 48 hours vs 2% DMSO control; read-out: Concentration at 90% Inhibition St
Some compounds, each annotated with its measured IC90.
reported_endpoint: IC90

1. COc1ccc(Br)cc1[C@H](Cn1c(=O)n(C(C)(C)C(=O)NC(C)C)c(=O)c2c(C)c(-n3nccn3)sc21)OCC(C)(C)C#N    > 50 µg/mL
2. COc1ccc(F)cc1[C@H](Cn1c(=O)n(C(C)(C)C(=O)NC(C)C)c(=O)c2c(C)c(-n3nccn3)sc21)OC[C@@H](C)C#N    > 50 µg/mL
3. COc1ccc(F)cc1[C@H](Cn1c(=O)n(C(C)(C)C(N)=O)c(=O)c2c(C)c(-n3nccn3)sc21)OC1CCC(=O)CC1    > 50 µg/mL
4. Cc1c(-n2nccn2)sc2c1c(=O)n(C(C)(C)C(=O)NC(C)C)c(=O)n2C[C@H](OC(C)C)c1cc(F)ccc1OCCO    > 50 µg/mL
5. COc1ccc(F)cc1[C@H](Cn1c(=O)n(C(C)(C)C(=O)N2CC=CC2)c(=O)c2c(C)c(-n3nccn3)sc21)OC(C)C    2 µg/mL
6. COc1ccc(F)cc1[C@H](Cn1c(=O)n(C(C)(C)C(=O)N2CCCC2)c(=O)c2c(C)c(-n3nccn3)sc21)OCC(C)C    2 µg/mL
